Every entry's value here was drawn from patent US20080145313A1.

System: target transcript mRNA in A549 cells
protocol.text: Level of mRNA of target transcript in A549 cells by quantitative RT-PCR (Tables 12 and 13)
Format: cell-based, human
settings: 0.1 nM siRNA, 24 h post-transfection
assay.readout: mRNA knockdown of transporter gene target transcript, 0.1 nM

| substance | result |
| --- | --- |
| SEQ ID NO: 4965: siRNA targeting ATP7A (chain 1 TTATAATGCAGTGTCATCATCTTCC; chain 2 UUAUAAUGCAGUGUCAUCAUCUUCC; chemistry not given here; one strand in two spellings) | − (<50% mRNA knockdown) |
| SEQ ID NO: 4929: siRNA targeting SLC25A10 (DIC) (chain 1 TAGGTCATCTGTCTGCACAGCGAGG; chain 2 UAGGUCAUCUGUCUGCACAGCGAGG; chemistry not given here; one strand in two spellings) | − (<50% mRNA knockdown) |
| SEQ ID NO: 4896: siRNA targeting SLC2A5 (GLUT5) (chain 1 AAGTCTTCCATGAATTCACCGGTCC; chain 2 AAGUCUUCCAUGAAUUCACCGGUCC; Antisense strand given in DNA and RNA notation, chemistry not given here; one strand in two spellings) | − (<50% mRNA knockdown) |
